- Study system: FAD-linked sulfhydryl oxidase ALR (Homo sapiens, UniProt P55789)
- Sequence (P55789 whole entry): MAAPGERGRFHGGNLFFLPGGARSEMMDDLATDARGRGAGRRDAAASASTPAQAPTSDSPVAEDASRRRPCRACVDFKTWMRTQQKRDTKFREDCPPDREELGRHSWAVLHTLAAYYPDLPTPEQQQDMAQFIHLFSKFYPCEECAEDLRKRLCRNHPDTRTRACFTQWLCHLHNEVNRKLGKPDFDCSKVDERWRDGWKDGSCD
- Experiment description: inhibitors of human ALR sulfhydryl oxidase, dose response, biochemical, H2O2 detection, luminescence, cherry-pick (AID 493248)
The source made the active and inactive calls.
Classes used: Y (active), N (inactive)

[[record]]
molecule = "CN(C)c1ccc(CN(Cc2ccco2)C(=O)c2ccco2)cc1"
answer_label = "Y"

[[record]]
molecule = "O=C(Nc1nnc(-c2cccnc2)o1)c1cccc([N+](=O)[O-])c1"
answer_label = "Y"

[[record]]
molecule = "CC(=O)Nc1ccc(N2C(=O)CSC2c2ccccc2[N+](=O)[O-])cc1 (centres undefined)"
answer_label = "Y"

[[record]]
molecule = "COc1ccc(CSc2nc(O)cc(=O)n2CC(C)C)cc1F"
answer_label = "Y"

[[record]]
molecule = "Cc1ccc(S(=O)(=O)N2CCN(CC(=O)N/N=C\\c3ccc(O)c(O)c3)CC2)cc1"
answer_label = "Y"

[[record]]
molecule = "c1ccc(Nc2[nH]nnc2-c2ccccc2)cc1"
answer_label = "N"

[[record]]
molecule = "Cc1cc(S(=O)(=O)N2CCN(c3ccccc3O)CC2)c(C)s1"
answer_label = "Y"

[[record]]
molecule = "COc1ccc(Br)cc1CNc1ccc2[nH]c(O)nc2c1"
answer_label = "Y"

[[record]]
molecule = "Cc1ccc(-c2nc(-c3ccccn3)sc2CC(=O)O)cc1"
answer_label = "Y"


* * *

- System: Streptococcus
- Experiment description: Group A Streptococcus viability loss, dose response, counter-screen for streptokinase expression inhibitor project, luminescence, BacTiterGlo (AID 1915);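 note: potency for reduction of bacterial viability or growth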
- Assay type: functional, organism-based
Activity calls are given as the source filed them.
This listing pairs compounds with measured EC50.
Property label: EC50

[[record]]
compound = "Oc1ccccc1C1CCCCC1c1ccccc1 (centres undefined)"
study_system = "Streptococcus"
property_label = "EC50"
reported_measurement = "50.4 µM (active)"

[[record]]
compound = "O=C1/C(=C/Nc2ccc(O)cc2)c2ccccc2C(=O)N1Cc1ccccc1"
study_system = "Streptococcus"
property_label = "EC50"
reported_measurement = "14.6 µM (active)"

[[record]]
compound = "COc1ccccc1/C=N\\Nc1cc(C)nc(-n2nc(C)cc2C)n1"
study_system = "Streptococcus"
property_label = "EC50"
reported_measurement = "16.1 µM (active)"

[[record]]
compound = "CCCCCCN1N=C(C)C(C(=O)c2ccc(Cl)cc2)C1=O (centres undefined)"
study_system = "Streptococcus"
property_label = "EC50"
reported_measurement = "29.5 µM (active)"

[[record]]
compound = "CN(C)S(=O)(=O)c1ccc(-c2csc(N/N=C/c3ccc(O)cc3)n2)cc1"
study_system = "Streptococcus"
property_label = "EC50"
reported_measurement = "13.3 µM (active)"

[[record]]
compound = "CCn1nc(C)cc1-c1nnc(Sc2ncc([N+](=O)[O-])s2)n1C"
study_system = "Streptococcus"
property_label = "EC50"
reported_measurement = "12.4 µM (active)"

[[record]]
compound = "CCOC(=O)c1ccc(NC(=O)c2[nH]cnc2C(=O)N[C@@H](Cc2ccccc2)C(=O)OC(C)(C)C)cc1"
study_system = "Streptococcus"
property_label = "EC50"
reported_measurement = "44.9 µM (active)"

[[record]]
compound = "CC(C)Oc1ccc(C(=O)Nc2nc3ccccc3[nH]2)cc1"
study_system = "Streptococcus"
property_label = "EC50"
reported_measurement = "28.6 µM (active)"

[[record]]
compound = "CCOC(=O)c1c(-c2ccc(OC)cc2)csc1NC=C1C(=O)CCCC1=O"
study_system = "Streptococcus"
property_label = "EC50"
reported_measurement = "32.7 µM (active)"

